target: recombinant human MetAP2 (Homo sapiens, UniProt P50579); construct: Flag; experiment: Inhibition of recombinant human MetAP2 activity (Amplex red fluorescence assay); conditions: manganese Flag-MetAP2, 0.75 mM Methionine-Alanine-Serine substrate, 30 minutes at 25° C., pH 7.5, 1% DMSO
Sequence (P50579 whole entry): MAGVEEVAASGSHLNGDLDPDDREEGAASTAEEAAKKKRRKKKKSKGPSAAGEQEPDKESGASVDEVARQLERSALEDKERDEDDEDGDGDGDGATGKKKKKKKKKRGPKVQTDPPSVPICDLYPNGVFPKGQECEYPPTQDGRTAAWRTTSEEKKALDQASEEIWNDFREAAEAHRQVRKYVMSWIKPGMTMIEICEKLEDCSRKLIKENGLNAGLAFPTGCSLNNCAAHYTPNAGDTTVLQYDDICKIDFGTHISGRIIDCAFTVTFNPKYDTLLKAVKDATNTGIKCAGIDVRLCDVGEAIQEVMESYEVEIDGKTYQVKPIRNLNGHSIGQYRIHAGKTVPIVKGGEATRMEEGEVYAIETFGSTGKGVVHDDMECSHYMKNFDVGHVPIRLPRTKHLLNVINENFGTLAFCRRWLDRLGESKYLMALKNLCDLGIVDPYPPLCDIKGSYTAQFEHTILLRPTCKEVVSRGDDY
reported.property: IC50

Recorded IC50, per entry:
compound: COc1c(-c2ccon2)ccc(CS(=O)(=O)c2ccccc2)c1C(=O)O
IC50: > 2000 nM
//
compound: CCc1ccc(CS(=O)(=O)c2ccc(Cl)cc2)c(C(=O)O)c1OC
IC50: > 2000 nM
//
compound: CCc1ccc(CS(=O)(=O)c2ccccc2)c(C(=O)O)c1OC
IC50: 200 to 2000 nM
//
compound: COc1c(-c2ccoc2)ccc(CS(=O)(=O)C2C3CCC2CC3)c1C(=O)O (centres unmarked)
IC50: 200 to 2000 nM

Documented IC50 of COc1c(-c2cc[nH]n2)ccc(CS(=O)(=O)c2ccccc2)c1C(=O)O : > 2000 nM

###

target: recombinant human MetAP2 (Homo sapiens, UniProt P50579); construct: Flag; test: Inhibition of recombinant human MetAP2 activity (Amplex red fluorescence assay); conditions: manganese Flag-MetAP2, 0.75 mM Methionine-Alanine-Serine substrate, 30 minutes at 25° C., pH 7.5, 1% DMSO
Counter-ions that a name gives are not always drawn.
reported.property: IC50

molecule: COc1cc(CS(=O)(=O)c2ccccc2)c(C(=O)O)c(OC)c1-c1ccoc1
IC50: 200 to 2000 nM

Summary: COc1cccc(S(=O)(=O)Cc2ccc(-c3ccoc3)c(OC)c2C(=O)O)c1 , recombinant human MetAP2 (Homo sapiens, UniProt P50579), IC50 = > 2000 nM

Summary: COc1c(-c2ccoc2)ccc(CS(=O)(=O)c2cccnc2)c1C(=O)O , recombinant human MetAP2 (Homo sapiens, UniProt P50579), IC50 = 200 to 2000 nM

Summary: NCCOc1c(-c2ccoc2)ccc(CS(=O)(=O)c2ccc(F)cc2)c1C(=O)O [hydrochloride] , recombinant human MetAP2 (Homo sapiens, UniProt P50579), IC50 = < 200 nM

Summary: COc1c(-c2ccsc2)ccc(CS(=O)(=O)c2ccccc2)c1C(=O)O , recombinant human MetAP2 (Homo sapiens, UniProt P50579), IC50 = > 2000 nM

Summary: COc1c(-c2ccoc2)ccc(CS(=O)(=O)c2ccccc2C)c1C(=O)O , recombinant human MetAP2 (Homo sapiens, UniProt P50579), IC50 = 200 to 2000 nM

Summary: COc1c(-c2ccoc2)ccc(CS(=O)(=O)N2C3CCC2CC3)c1C(=O)O , recombinant human MetAP2 (Homo sapiens, UniProt P50579), IC50 = 200 to 2000 nM

Summary: CN(C)CCOc1c(-c2ccoc2)ccc(CS(=O)(=O)c2ccccc2)c1C(=O)O [hydrochloride] , recombinant human MetAP2 (Homo sapiens, UniProt P50579), IC50 = > 2000 nM

Summary: COc1c(-c2nccs2)ccc(CS(=O)(=O)c2ccccc2)c1C(=O)O , recombinant human MetAP2 (Homo sapiens, UniProt P50579), IC50 = > 2000 nM

Summary: CCc1ccc(CS(=O)(=O)c2ccccc2C)c(C(=O)O)c1OC , recombinant human MetAP2 (Homo sapiens, UniProt P50579), IC50 = 200 to 2000 nM

Summary: COc1c(-c2ccoc2)ccc(CS(=N)(=O)c2ccccc2)c1C(=O)O (stereo not shown) , recombinant human MetAP2 (Homo sapiens, UniProt P50579), IC50 = 200 to 2000 nM

Summary: CCN(CC)C/C=C/c1ccccc1S(=O)(=O)Cc1ccc(-c2ccoc2)c(OC)c1C(=O)O , recombinant human MetAP2 (Homo sapiens, UniProt P50579), IC50 = 200 to 2000 nM

Summary: COc1c(-c2ccoc2)ccc(CS(=O)(=O)N2CCCCC2)c1C(=O)O , recombinant human MetAP2 (Homo sapiens, UniProt P50579), IC50 = < 200 nM

Summary: O=C(O)c1c(CS(=O)(=O)c2ccccc2)ccc(-c2ccoc2)c1OC1CNC1 [hydrochloride] , recombinant human MetAP2 (Homo sapiens, UniProt P50579), IC50 = > 2000 nM

Summary: COc1c(-c2ccoc2)ccc(CS(=O)(=O)C2CC3CCC2CC3)c1C(=O)O (stereo not shown) , recombinant human MetAP2 (Homo sapiens, UniProt P50579), IC50 = > 2000 nM

Summary: COc1c(-c2ccoc2)ccc(CS(=O)(=O)N2C3CCCC2CC3)c1C(=O)O , recombinant human MetAP2 (Homo sapiens, UniProt P50579), IC50 = > 2000 nM

Summary: CN=S(=O)(Cc1ccc(-c2ccoc2)c(OC)c1C(=O)O)c1ccccc1 (stereo not shown) , recombinant human MetAP2 (Homo sapiens, UniProt P50579), IC50 = 200 to 2000 nM

Summary: COc1c(-c2ccoc2)ccc(CS(=O)(=O)c2cccc(F)c2)c1C(=O)O , recombinant human MetAP2 (Homo sapiens, UniProt P50579), IC50 = < 200 nM

Summary: CCN(CC)CC1CCN1c1ccccc1S(=O)(=O)Cc1ccc(-c2ccoc2)c(OC)c1C(=O)O (stereo not shown) , recombinant human MetAP2 (Homo sapiens, UniProt P50579), IC50 = > 2000 nM

###

target: recombinant human MetAP2 (Homo sapiens); construct: Flag; made in house; host or cells: Sf9 insect cells; assay: Inhibition of recombinant human MetAP2 activity (Amplex red fluorescence assay); assay type: biochemical; conditions: manganese Flag-MetAP2, 0.75 mM Methionine-Alanine-Serine substrate, 30 minutes at 25° C., pH 7.5, 1% DMSO
Where a name gives a salt, the structure may show the parent alone.
Reported IC50 values follow for various molecules

Recorded IC50, per entry:
molecule: O=C(O)c1c(CS(=O)(=O)c2ccccc2)ccc2ccccc12
result: 200 to 2000 nM
//
molecule: CCc1ccc(C[S+]([O-])c2ccccc2)c(C(=O)O)c1OC (stereo not drawn)
result: > 2000 nM
//
molecule: NCCOc1c(-c2ccoc2)ccc(CS(=O)(=O)c2cccc(Cl)c2)c1C(=O)O [hydrochloride]
result: < 200 nM
//
molecule: CCN(CC)CCNc1ccccc1S(=O)(=O)Cc1ccc(-c2ccoc2)c(OC)c1C(=O)O
result: 200 to 2000 nM
//
molecule: COc1c(-c2ccoc2)ccc(CS(=O)(=O)c2cccc(Cl)c2)c1C(=O)O
result: < 200 nM

Documented IC50 of COc1c(-c2cccnc2)ccc(CS(=O)(=O)c2ccccc2)c1C(=O)O : > 2000 nM

Documented IC50 of COc1c(C#N)ccc(CS(=O)(=O)c2ccccc2)c1C(=O)O : > 2000 nM

Documented IC50 of CCCc1ccc(CS(=O)(=O)c2ccccc2)c(C(=O)O)c1OC : > 2000 nM

Documented IC50 of N#CCNc1c(-c2ccoc2)ccc(CS(=O)(=O)c2ccccc2)c1C(=O)O : < 200 nM

Documented IC50 of COc1c(-c2ccccc2)ccc(CS(=O)(=O)c2ccccc2)c1C(=O)O : > 2000 nM

Documented IC50 of O=C(O)c1c(CS(=O)(=O)c2ccccc2)ccc(-c2ccoc2)c1OCCO : < 200 nM

Documented IC50 of COc1c(-c2cnsc2)ccc(CS(=O)(=O)c2ccccc2)c1C(=O)O : 200 to 2000 nM

###

Reported IC50 values follow for various molecules
Biological target: recombinant human MetAP2 (Homo sapiens)
Construct: Flag
Assay: Inhibition of recombinant human MetAP2 activity (Amplex red fluorescence assay)
Conditions: manganese Flag-MetAP2, 0.75 mM Methionine-Alanine-Serine substrate, 30 minutes at 25° C., pH 7.5, 1% DMSO
Experimental: Compounds are tested for their capacity to inhibit recombinant human MetAP2 activity using the following assay. Human recombinant Flag-MetAP2 expressed in Sf9 cells followed by affinity purification and EDTA treatment to remove endogenous active site cation is dialysed against MnCl2 to produce the manganese enzyme used in the assay. […] The fluorescent signal is detected using a multiwell fluorimeter. […]

Recorded IC50, per entry:
molecule: Cn1nccc1-c1ccc(CS(=O)(=O)c2ccccc2)c(C(=O)O)c1
IC50: > 2 µM
--
molecule: O=C(O)c1cc(-c2ccoc2)ccc1CS(=O)(=O)c1ccccc1
IC50: 0.2 to 2 µM
--
molecule: CNc1c(-c2ccoc2)ccc(CS(=O)(=O)c2ccccc2)c1C(=O)O
IC50: < 0.2 µM
--
molecule: CCN(CC)CCOc1ccccc1S(=O)(=O)Cc1ccc(-c2ccoc2)c(OC)c1C(=O)O
IC50: > 2 µM
--
molecule: COc1c(-c2ccoc2)ccc(CS(=O)(=NC#N)c2ccccc2)c1C(=O)O (stereo not drawn)
IC50: < 0.2 µM

As a next step, examine the molecule that follows.
Documented IC50 of COc1cccc(CS(=O)(=O)c2ccccc2C)c1C(=O)O : > 2 µM
